Molecular target: T1, soluble human ST2-FLAG His (human, UniProt Q01638 19-322, limits assumed)
T1 construct: also called human ST2-FH; 6xhistidine tagged human ST2; not shown: FLAG and 6x histidine tags
T1 sequence: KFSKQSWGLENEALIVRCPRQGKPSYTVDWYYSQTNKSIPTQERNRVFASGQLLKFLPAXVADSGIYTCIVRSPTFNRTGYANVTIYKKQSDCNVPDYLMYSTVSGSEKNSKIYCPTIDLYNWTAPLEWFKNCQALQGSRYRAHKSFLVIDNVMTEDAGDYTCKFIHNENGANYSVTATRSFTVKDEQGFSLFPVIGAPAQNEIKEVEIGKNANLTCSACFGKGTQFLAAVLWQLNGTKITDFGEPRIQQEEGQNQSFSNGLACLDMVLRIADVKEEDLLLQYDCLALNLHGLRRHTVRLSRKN
Experiment: AlphaScreen, biotinylated human IL-33 with human ST2-FH, antibody at 12.5 ug/ml
PROPERTY NAME: % inhib ST2-IL33 AS 12.5 ug/ml (%)
All answers are understood in %, so give the number only.

Reported % inhib ST2-IL33 AS 12.5 ug/ml for Ab6 (antibody, human IgG2, kappa, V domains shown, fully human anti-ST2 antibody) VH: EVQLVESGGGLVQPGGSLRLSCAASGFTFSTYDMHWVRQTTGKGLEWVSAIDLAGDTYYPGSVKGRFTISREDAKNSLYLQMNSLRAGDTAVYYCARGGDGYNYDYYGIDVWGQGTTVTVSS VL: DIVMTQSPLSLPVTPGEPASISCRSSQSLLHSDGYHYLDWYLQKPGQSPQLLIYLGSNRASGVPDRFSGSGSGTDFTLNISRVEAEDVGVYYCMQALQTLTFGGGTKVEIKR : what is it?
98.5

Reported % inhib ST2-IL33 AS 12.5 ug/ml for Ab3 (antibody, human IgG2, kappa, V domains shown, fully human anti-ST2 antibody) VH: EVQLVESGGGLVQPGGSLRLSCAASGFTFSTYDMHWIRQAPGKNLEWVSAIDLAGDTYYPGSVKGRFTISREDAKNSLYLQMNSLRAGDTAVYYCARGGDGYNYDYYGIDVWGQGTTVTVSS VL: DIVMTQSPLSLPVTPGEPASISCRSSQSLLHSDGYHYLDWYLQKPGQSPQLLIYLGSNRASGVPDRFTGSGSGTDFTLKISRVEAEDVGVYYCMQALQILTFGGGTKVEIKR : what is it?
98.8

Reported % inhib ST2-IL33 AS 12.5 ug/ml for Ab7 (antibody, human IgG2, kappa, V domains shown, fully human anti-ST2 antibody) VH: EVQLVESGGGLVQPGGSLRLSCAASGFTFSTYDMHWVRQTTGKGLEWVSAIDLAGDTYYPGSVKGRFTISREDAKNSLYLQMNSLRAGDTAVYYCARGGDGYNYDYYGIDVWGQGTTVTVSS VL: DIVMTQSPLSLPVTPGEPASISCRSSQSLLHSDGYHYLDWYLQKPGQSPQLLIYLGSNRASGVPDRFSGSGSGTDFTLNISRVEAEDVGVYYCMQALQTLTFGGGTKVEIKR : what is it?
98.9

Reported % inhib ST2-IL33 AS 12.5 ug/ml for Ab4 (antibody, human IgG2, kappa, V domains shown, fully human anti-ST2 antibody) VH: QVQLVQSGAEVKKPGASVKVSCEVSGFILTELSVNWVRQAPGKGLEWMGGFDPEDGKTIYAQKFQGRVTLTEDTSTDTAYMELSSLRSEDTAVYYCATWWDFHFDFWGQGTLVTVSS VL: DFVMTQTPLSLSVTPGQPASISCKSSQSLLHSNGKTYLYWFLQKPGQPPQLLIYEVSNRFSGVPDRFSGSGSGTDFTLKISRVEAEDVGVYYCMQSIQLPLTFGGGTKVEIKR : what is it?
98.4
